The measurements presented in this section are drawn from patent US4762839A.

target_under_test: aldose reductase (Oryctolagus cuniculus, UniProt P15122)
Construct: Aldose reductase was obtained from lens of male rabbit; from tissue; host or cells: lens of male rabbit (weighing 2.5-3.5 kg)
assay_notes: Aldose reductase inhibitory activity
Type: biochemical
assay_context: aldose reductase from lens of male rabbit
property_measured: pIC50
Expect pIC50 as a plain number equal to -log10 of the molar concentration.

// known answers, use as guide
>>> measured_result("CN1C(=O)Nc2ccc(Cl)cc2C12NC(=O)NC2=O (stereo not shown) [Test Compound 3]")
7.54
>>> measured_result("CC(C)CN1C(=O)N(C)C2(NC(=O)NC2=O)c2cc(Cl)ccc21 (stereo not shown) [Test Compound 10]")
6.57
>>> measured_result("CN1C(=O)Nc2ccc(Cl)cc2C12NC(=O)NC2=O (stereo not shown) [Test Compound 1]")
7.25
>>> measured_result("CN1C(=O)Nc2ccc(Br)cc2C12NC(=O)NC2=O (stereo not shown) [Test Compound 6]")
7.28
>>> measured_result("CN1C(=O)Nc2ccc(Cl)cc2C12NC(=O)NC2=O (stereo not shown) [Test Compound 2]")
7.66

Okay, next one:
## Task For CN1C(=O)NC2(C1=O)c1ccccc1NC(=O)N2C (stereo not shown) [Test Compound 11, reference compound] , what is its reported pIC50?
## Result 5.00
